# SYSTEM: Bem1-1, P29366
# Sequence (P29366 55-141): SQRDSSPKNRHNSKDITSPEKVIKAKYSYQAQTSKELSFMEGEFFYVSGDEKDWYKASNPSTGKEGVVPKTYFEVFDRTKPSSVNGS
# MEASUREMENT_NOTES: SPOT array
# CONDITION_CONTEXT: median of control spots 4282
EXPERIMENTAL_ENDPOINT: SPOT intensity
The answer should be written as a number, with no unit following it.

Asked: Using the record for SSSSSPPPLPTRRDH , report its SPOT intensity.
Given back: 8

Asked: Same for TEVPIPRRPPPPQAA
Given back: 3

Asked: Same for MSPLGAPPPPPHKDH
Given back: 0

Asked: Same for KRRAPPPVPKKPSSR
Given back: 1

Asked: Same for PPPPPPPPPPLPQSL
Given back: 0

Asked: Same for FPGKKSPRLPHRNKK
Given back: 0

Asked: Same for LLLLFVPDSPYDPAI
Given back: 0

Asked: Same for TKRKRPARLIFYDSK
Given back: 0

Asked: Same for SRYRRPLTLLLLKPF
Given back: 0

Asked: Same for YYNRQELALPKRMSS
Given back: 0

Asked: Same for SGVRLPAPPPPPRRG
Given back: 3

Asked: Same for RRTRLRPPTPLSQLL
Given back: 2

Asked: Same for FHLNPKRSAVLYDRP
Given back: 245

Asked: Same for HPRFVSPRIPSRIVK
Given back: 0

Asked: Same for YSRKKLPVVLSKMTL
Given back: 1
